target.or.system: T1, human IL-12 (human, UniProt P29460 23-328; P29459 23-219)
T1 construct: also called Interleukin-12
T1 sequence 1: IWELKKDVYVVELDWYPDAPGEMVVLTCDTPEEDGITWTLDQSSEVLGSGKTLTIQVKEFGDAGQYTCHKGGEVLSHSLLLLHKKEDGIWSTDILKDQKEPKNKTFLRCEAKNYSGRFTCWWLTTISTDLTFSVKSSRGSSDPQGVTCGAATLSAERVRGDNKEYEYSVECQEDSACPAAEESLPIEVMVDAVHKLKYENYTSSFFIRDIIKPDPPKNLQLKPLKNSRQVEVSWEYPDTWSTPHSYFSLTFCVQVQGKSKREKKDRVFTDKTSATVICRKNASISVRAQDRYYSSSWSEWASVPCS
T1 sequence 2: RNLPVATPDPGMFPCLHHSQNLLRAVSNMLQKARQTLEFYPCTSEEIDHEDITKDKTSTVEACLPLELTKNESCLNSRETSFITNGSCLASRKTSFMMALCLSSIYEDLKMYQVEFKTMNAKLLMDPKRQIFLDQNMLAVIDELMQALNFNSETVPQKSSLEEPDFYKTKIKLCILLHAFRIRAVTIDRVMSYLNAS
measurement.description: SPR (Biacore T200), 37 C, pH 7.4; captured antibody, IL-12 analyte
quantity.kind: Kd (nM)
Use nM as the unit, but write only the number.

binder	unit.abbrev	Kd
Anti-IL-12 antibody Ab1 variant F100aI VH/A43Q, Y49A VL (antibody, name in Kabat numbering, V domains shown, Ab1 with VH/VL interface substitutions; Kabat numbering) VH: QVQLVQSGAEVKKPGSSVKVSCKASGGTFSDYYLHWVRQAPGQGLEWMGWIDPENGDTEYAPKFQGRVTITADESTSTAYMELSSLRSEDTAVYYCARNKELRYIDVWGQGTLVTVSS VL: DIVMTQSPLSLPVTPGEPASISCRASQSISINLHWYQQKPGQQPRLLIAFASQSISGVPSRFSGSGSGTDFTLTISSLQPEDFATYYCQQSNSFPLTFGQGTKVEIKR	nM	1.33

Report Kd for Anti-IL-12 antibody Ab1 variant V37S VH/- (antibody, name in Kabat numbering, V domains shown, Ab1 with VH/VL interface substitutions; Kabat numbering) VH: QVQLVQSGAEVKKPGSSVKVSCKASGGTFSDYYLHWSRQAPGQGLEWMGWIDPENGDTEYAPKFQGRVTITADESTSTAYMELSSLRSEDTAVYYCARNKELRYFDVWGQGTLVTVSS VL: DIVMTQSPLSLPVTPGEPASISCRASQSISINLHWYQQKPGQAPRLLIYFASQSISGVPSRFSGSGSGTDFTLTISSLQPEDFATYYCQQSNSFPLTFGQGTKVEIKR please.
0.789

Reference source for all entries: patent US20240343771A1
